Data origin: patent EP4656654A1

- assay_target: SSTR2 (Homo sapiens, UniProt P30874)
- Construct: host or cells: CHO-K1
- Sequence (P30874 whole entry): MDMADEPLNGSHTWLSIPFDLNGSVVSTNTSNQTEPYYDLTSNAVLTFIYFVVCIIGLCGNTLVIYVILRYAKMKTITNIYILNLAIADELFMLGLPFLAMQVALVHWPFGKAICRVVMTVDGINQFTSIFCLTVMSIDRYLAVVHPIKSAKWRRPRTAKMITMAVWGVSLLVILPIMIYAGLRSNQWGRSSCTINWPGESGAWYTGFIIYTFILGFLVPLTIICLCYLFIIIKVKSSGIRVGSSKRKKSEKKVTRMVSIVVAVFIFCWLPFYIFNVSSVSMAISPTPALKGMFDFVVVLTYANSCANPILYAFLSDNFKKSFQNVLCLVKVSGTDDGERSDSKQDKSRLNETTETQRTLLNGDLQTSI
- procedure_text: competitive radioligand binding assay (125I-Tyr11-Somatostatin-14) on membranes of SSTR2-overexpressing CHO-K1 cells
- details: parameter A, bottom of fitted % Effect curve
Numbered stars: 1 amine (or outer) side, 2 acyl side, 3 side chain; on linkers, the order of the positions; unused ones are H or OH. Bridge positions count the residues as written; N and C are the ends. Square brackets hold non-standard residues; d marks the D form. Peptide text beside a SMILES is read from it. * marks the point of attachment. Phe(3-CH2NH2) = O=C([C@H](Cc1cccc(CN[*:3])c1)N[*:1])[*:2]; DOTA = O=C(O)CN1CCN(CC(=O)O)CCN(CC(=O)*)CCN(CC(=O)O)CC1; X2 = CC(C)(CN)CC[C@H](N[*:1])C(=O)[*:2]; Thr(ol) = C[C@@H](O)[C@H](N)CO
quantity_measured: Bottom (%)
Express your answer in %, writing the number without its unit.

Example entries begin here.
Incoming: // lookup Bottom for C[C@@H](O)[C@@H]1NC(=O)[C@H](Cc2cccc(CN)c2)NC(=O)[C@@H](Cc2c[nH]c3ccccc23)NC(=O)[C@H](Cc2ccccc2)NC(=O)[C@@H](NC(=O)[C@H](N)Cc2ccccc2)CSSC[C@@H](C(=O)N[C@H](CO)[C@@H](C)O)NC1=O [Compound 5] (H-[dF]CF[dW][Phe(3-CH2NH2)]TC[Thr(ol)]; disulfide 2-7)
Outgoing: 8.7

Incoming: // lookup Bottom for C[C@@H](O)[C@@H]1NC(=O)[C@H](C2CCCC(CN)C2)NC(=O)[C@@H](Cc2c[nH]c3ccccc23)NC(=O)[C@H](Cc2ccccc2)NC(=O)[C@@H](NC(=O)[C@H](N)Cc2ccccc2)CSSC[C@@H](C(=O)N[C@H](CO)[C@@H](C)O)NC1=O (single isomer, unassigned) [Compound 7p2]
Outgoing: 10.8

Incoming: // lookup Bottom for C[C@@H](O)[C@H](NC(=O)[C@@H]1CSSC[C@H](NC(=O)[C@@H](Cc2ccccc2)NC(=O)CN2CCN(CC(=O)O)CCN(CC(=O)O)CCN(CC(=O)O)CC2)C(=O)N[C@@H](Cc2ccc(O)cc2)C(=O)N[C@H](Cc2c[nH]c3ccccc23)C(=O)N[C@@H](CCC(C)(C)CN)C(=O)N[C@@H]([C@@H](C)O)C(=O)N1)C(=O)O [Compound 6] ({DOTA}-[dF]CY[dW][X2]TCT-OH; disulfide 2-7; N-terminus and C-terminus assumed)
Outgoing: 13.2

Now for the compound whose Bottom we want.
Incoming: // lookup Bottom for C[C@@H](O)[C@@H]1NC(=O)[C@H](C2CCCC(CN)C2)NC(=O)[C@@H](Cc2c[nH]c3ccccc23)NC(=O)[C@H](Cc2ccccc2)NC(=O)[C@@H](NC(=O)[C@H](N)Cc2ccccc2)CSSC[C@@H](C(=O)N[C@H](CO)[C@@H](C)O)NC1=O (single isomer, unassigned) [Compound 4]
Outgoing: 11.7
